The binders listed here are annotated with their kon.
molecular target: T1, murine pro-myostatin (mouse, UniProt O08689 25-376, biotinylated (in the SPR assay)); test: SPR Biacore 8K, biotin-antigen captured
T1 construct: also called proGDF8 (mouse); mouse pro-myostatin

[
  {
    "binder": "Ab123 (antibody, human IgG4 S228P, kappa, V domains shown) VH: EVQLVESGGGLVQPGGSLRLSCAASGFTFSKYDMSWVRQAPGKGLELVASISSSGGTRYYPDSVKGRFTISRDNAKNSLYLQMNSLRAEDTAVYYCAKDLWVASPGYGMDVWGQGTTVTVSS VL: DIVMTQSPLSLPVTPGEPASISCRSSQSLLHSSGHNYLHWYLQKPGQSPQLLIYLGSIRAPGVPDRFSGSGSGTDFTLKISRVEAEDVGVYYCMQALLNPPTFGGGTKVEIKR",
    "unit.string": "M⁻¹ s⁻¹",
    "kon": "1.25e+06"
  },
  {
    "binder": "Ab141 (antibody, human IgG4 S228P, kappa, V domains shown) VH: EVQLVESGGGLVQPGGSLRLSCAASGFTFSSYGMSWVRQAPGKGLELVASFTGSGGAYYPDSVKGRFTISRDNAKNSLYLQMNSLRAEDTAVYYCARDLLIRFLEWSHYYGMDVWGQGTTVTVSS VL: DIVMTQSPLSLPVTPGEPASISCRSSQSLLHSSGHNFLHWYLQKPGQSPQLLIYEVSNRVSGVPDRFSGSGSGTDFTLKISRVEAEDVGVYYCMQQTQYPGTFGGGTKVEIKR",
    "unit.string": "M⁻¹ s⁻¹",
    "kon": "2.93e+06"
  },
  {
    "binder": "Ab115 (antibody, human IgG4 S228P, kappa, V domains shown) VH: QVQLVQSGAEVKKPGASVKVSCKVSGYAFTNYNIHWVRQAPGKGLEWMGGINPRTGGTIYAQKFQGRVTMTEDTSTDTAYMELSSLKSEDTAVYYCAKDIYTGVAVAGSGMDYWGQGTLVTVSS VL: DIQMTQSPSSVSASVGDRVTITCRASQGISTHLAWYQQKPGKAPKLLIYGASNLESGVPSRFSGSGSGTDFTLTISSLQPEDFANYYCQQANSFPWTFGGGTKVEIKR",
    "unit.string": "M⁻¹ s⁻¹",
    "kon": 450000
  },
  {
    "binder": "Ab121 (antibody, human IgG4 S228P, kappa, V domains shown) VH: QVTLRESGPALVKPTQTLTLTCTVSGFSFSTSGMVVNWIRQPPGKALEWLAMIDWDADNIVYNSALKSRLTISKDTSKNQVVLTMTNMDPVDTATYYCAKDTGSGWFDAFDIWGQGTMVTVSS VL: DIVMTQSPDSLAVSLGERATINCKSSQSVLYSSTNQNFLAWYQQKPGQPPKLLIYQASTLQNGVPDRFSGSGSGTDFTLTISSLQAEDVAVYYCQQYLTTPYTFGGGTKVEIKR",
    "unit.string": "M⁻¹ s⁻¹",
    "kon": "3.24e+06"
  },
  {
    "binder": "Ab133 (antibody, human IgG4 S228P, kappa, V domains shown, human IgG4 in the EM experiment; also called Ab133 Human IgG4) VH: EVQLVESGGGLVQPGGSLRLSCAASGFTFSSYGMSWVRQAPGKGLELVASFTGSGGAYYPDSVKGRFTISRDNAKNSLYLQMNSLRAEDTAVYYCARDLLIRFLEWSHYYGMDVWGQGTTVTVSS VL: DIVMTQSPLSLPVTPGEPASISCRSSQSLLHSSGHNFLHWYLQKPGQSPQLLIYEVSNRVSGVPDRFSGSGSGTDFTLKISRVEAEDVGVYYCQQQTQYPGTFGGGTKVEIKR",
    "unit.string": "M⁻¹ s⁻¹",
    "kon": "3.01e+06"
  },
  {
    "binder": "Ab112 (antibody, human IgG4 S228P, kappa, V domains shown) VH: QVQLVQSGAEVKKPGASVKVSCKVSGGTFGIYAIHWVRQAPGKGLEWMGGTIPVFGTAIYAQKFQGRVTMTEDTSTDTAYMELSSLKSEDTAVYYCASLTGIAAAGTHPARGGMDVWGQGTTVTVSS VL: DIQMTQSPSSVSASVGDRVTITCRASPSISSYLAWYQQKPGKAPKLLIYAASRLQSGVPSRFSGSGSGTDFTLTISSLQPEDFANYYCQEYLSFPLTFGGGTKVEIKR",
    "unit.string": "M⁻¹ s⁻¹",
    "kon": 251000
  },
  {
    "binder": "Ab127 (antibody, human IgG4 S228P, kappa, V domains shown) VH: EVQLVESGGGLVQPGGSLRLSCTASGFTFGSYPMDWVRQAPGKGLEWVSYISGRGDVTYYADSVKGRFTISRDNAKNTLYLQMNSLRAEDTAVYYCAKVQSPSELLWFGELLPVDYWGQGTLVTVSS VL: DIQMTQSPSSLSASVGDRVTITCQASQVIKTWLNWYQQKPGKAPKLLIYDASNLQRGVPSRFSGSGSGTDFTFTISSLQPEDIATYYCQQSASTPITFGGGTKVEIKR",
    "unit.string": "M⁻¹ s⁻¹",
    "kon": 815000
  },
  {
    "binder": "Ab104 (antibody, human IgG4 S228P, kappa, V domains shown) VH: EVQLVESGGGLVQPGGSLRLSCAASGSAFSSYGMSWVRQAPGKGLELVASINSNGGSTYYPDSVKGRFTISRDNAKNSLYLQMNSLRAEDTAVYYCARDLLVKFLSWSHYYGMDVWGQGTTVTVSS VL: DIVMTQSPLSLPVTPGEPASISCRSSQSLLHSSGHNFLHWYLQKPGQSPQLLIYEVSNRVSGVPDRFSGSGSGTDFTLKISRVEAEDVGVYYCMQQTQYPPTFGGGTKVEIKR",
    "unit.string": "M⁻¹ s⁻¹",
    "kon": "3.58e+06"
  },
  {
    "binder": "Ab129 (antibody, human IgG4 S228P, kappa, V domains shown) VH: QVQLVQSGAEVKKPGASVKVSCKVSGFNYPRSAIHWVRQAPGKGLEWMGGINPSGEATIYAQKFQGRVTMTEDTSTDTAYMELSSLKSEDTAVYYCARDSSPQWLVTAGVYFYGMDVWGQGTTVTVSS VL: DIQMTQSPSSVSASVGDRVTITCRASQSISNWLAWYQQKPGKAPKLLIYHASTLQSGVPSRFSGSGSGTDFTLTISSLQPEDFANYYCQQYSSTPWTFGGGTKVEIKR",
    "unit.string": "M⁻¹ s⁻¹",
    "kon": 117000
  },
  {
    "binder": "Ab103 (antibody, human IgG4 S228P, kappa, V domains shown) VH: EVQLVESGGGLVQPGGSLRLSCAASGYTFSSYGMSWVRQAPGKGLELVASITGDAGRTYYPDSVKGRFTISRDNAKNSLYLQMNSLRAEDTAVYYCARDTLVRFLEWSHYYGMDVWGQGTTVTVSS VL: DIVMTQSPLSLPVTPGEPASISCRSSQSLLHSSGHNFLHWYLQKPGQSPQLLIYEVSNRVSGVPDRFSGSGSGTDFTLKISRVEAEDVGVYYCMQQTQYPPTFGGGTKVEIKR",
    "unit.string": "M⁻¹ s⁻¹",
    "kon": "5.83e+06"
  }
]
